target: CYP3A4 (Homo sapiens, UniProt P08684); test: Inhibition of CYP3A4 at 3 uM by fluorescent method; assay type: ADME
Sequence (P08684 whole entry): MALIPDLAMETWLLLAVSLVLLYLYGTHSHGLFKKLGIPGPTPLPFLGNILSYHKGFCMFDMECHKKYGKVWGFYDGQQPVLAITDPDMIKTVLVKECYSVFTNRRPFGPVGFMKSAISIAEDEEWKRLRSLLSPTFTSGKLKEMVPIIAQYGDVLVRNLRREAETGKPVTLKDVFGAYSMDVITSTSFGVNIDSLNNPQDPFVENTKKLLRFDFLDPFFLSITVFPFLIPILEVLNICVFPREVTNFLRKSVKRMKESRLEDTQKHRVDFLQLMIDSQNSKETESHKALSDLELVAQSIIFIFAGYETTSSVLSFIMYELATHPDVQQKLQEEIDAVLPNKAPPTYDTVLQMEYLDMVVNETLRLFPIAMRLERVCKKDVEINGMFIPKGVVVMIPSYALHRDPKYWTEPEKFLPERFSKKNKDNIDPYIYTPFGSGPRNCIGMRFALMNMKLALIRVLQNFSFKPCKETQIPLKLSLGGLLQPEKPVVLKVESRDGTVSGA
Assay Readout: inhibition at 3 µM (%)

# count of solved cases: 2
{"Compound": "COc1ccc(CCN2C(=O)N(NS(C)(=O)=O)CC2c2ccc(Cl)cc2)cc1 (configuration not stated)", "Measurement Units": "%", "inhibition at 3 µM": 27}
{"Compound": "COc1ccc(CCN2C(=O)N(NS(=O)(=O)CC#N)C[C@@H]2c2ccc(OC)cc2)cc1", "Measurement Units": "%", "inhibition at 3 µM": 7}

1. COc1ccc(CCN2C(=O)N(NS(C)(=O)=O)CC2c2ccc(C3CC3)cc2)cc1 (configuration not stated)
2. COCCOc1ccc(C2CN(NS(C)(=O)=O)C(=O)N2CCc2ccc(OC)cc2)cc1 (configuration not stated)
3. COc1ccc(CCN2C(=O)N(NS(=O)(=O)CF)C[C@@H]2c2ccc(OC)cc2)cc1
In this exercise, place the 3 compounds in ascending sequence of their recorded inhibition at 3 µM. # answer = labels listed in requested order 3, 2, 1

a. CCOc1ccc(CCN2C(=O)N(NS(C)(=O)=O)C[C@@H]2c2ccc(OC)cc2)cc1
b. COc1ccc(CCN2C(=O)N(NS(C)(=O)=O)CC2c2ccc(C)c(C)c2)cc1 (configuration not stated)
Higher inhibition at 3 µM: a or b ? Choose, then provide that item's label. b

----------
target: Potassium voltage-gated channel subfamily A member 5 (Homo sapiens, UniProt P22460); assay: Inhibition of human Kv1.5 expressed in CHO cells by patch-clamp technique
Sequence (P22460 whole entry): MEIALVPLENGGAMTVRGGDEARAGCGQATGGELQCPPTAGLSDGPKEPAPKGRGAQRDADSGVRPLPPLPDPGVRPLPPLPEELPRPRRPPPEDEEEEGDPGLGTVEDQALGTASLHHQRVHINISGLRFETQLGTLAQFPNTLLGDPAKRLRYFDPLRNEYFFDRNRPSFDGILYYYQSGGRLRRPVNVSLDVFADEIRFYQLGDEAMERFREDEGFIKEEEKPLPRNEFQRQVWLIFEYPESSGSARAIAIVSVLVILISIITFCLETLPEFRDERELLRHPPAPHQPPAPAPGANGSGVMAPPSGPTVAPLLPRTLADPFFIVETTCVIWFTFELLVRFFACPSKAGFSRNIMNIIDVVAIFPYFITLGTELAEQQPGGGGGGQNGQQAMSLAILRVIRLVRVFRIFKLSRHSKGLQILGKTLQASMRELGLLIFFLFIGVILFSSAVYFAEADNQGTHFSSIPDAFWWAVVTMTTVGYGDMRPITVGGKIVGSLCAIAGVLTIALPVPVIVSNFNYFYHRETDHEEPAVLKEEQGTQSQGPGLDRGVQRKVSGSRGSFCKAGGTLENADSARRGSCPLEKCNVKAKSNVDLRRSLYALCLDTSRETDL
Assay Readout: IC50 (µM)

# count of solved cases: 6
{"Compound": "COc1ccc(CCCN2C(=O)N(NS(C)(=O)=O)C[C@H]2c2ccc(OC)cc2)cc1", "Measurement Units": "µM", "IC50": 0.56}
{"Compound": "COc1ccc(CCN2C(=O)N(NS(C)(=O)=O)C[C@@H]2c2ccc(OC)cc2)cc1", "Measurement Units": "µM", "IC50": 0.33}
{"Compound": "COc1ccc(CCN2C(=O)N(NS(C)(=O)=O)CC2c2ccc(C)cc2)cc1 (configuration not stated)", "Measurement Units": "µM", "IC50": 0.24}
{"Compound": "COc1ccc(CCN2C(=O)N(NS(=O)(=O)Cc3ccccc3)C[C@@H]2c2ccc(OC)cc2)cc1", "Measurement Units": "µM", "IC50": 0.34}
{"Compound": "COc1ccc(CCN2C(=O)N(NS(C)(=O)=O)CC2c2ccc(C)c(C)c2)cc1 (configuration not stated)", "Measurement Units": "µM", "IC50": 0.61}
{"Compound": "COc1ccc([C@H]2CN(NS(C)(=O)=O)C(=O)N2CCc2ccc(OC(F)(F)F)cc2)cc1", "Measurement Units": "µM", "IC50": 0.52}

A. COc1ccc(CCN2C(=O)N(NS(C)(=O)=O)C[C@H]2c2ccc(OC)cc2)cc1
B. COc1ccc(CCN2C(=O)N(NS(C)(=O)=O)CC2c2ccc(Cl)cc2)cc1 (configuration not stated)
Higher IC50: A or B ? Choose, then provide that item's label. A

1. COc1ccc(CCN2C(=O)N(NS(C)(=O)=O)CC2c2ccc(C(F)(F)F)cc2)cc1 (configuration not stated)
2. COc1ccc(CCN2C(=O)N(NS(C)(=O)=O)CC2c2ccc(C3CC3)cc2)cc1 (configuration not stated)
Lab note: check whether 1 or 2 has the lower measured IC50. Choose, then provide that item's label. 2

P. COc1ccc(CCN2C(=O)N(NS(C)(=O)=O)CC2c2ccc(OC(C)C)cc2)cc1 (configuration not stated)
Q. COc1ccc(CCCN2C(=O)N(NS(C)(=O)=O)C[C@@H]2c2ccc(OC)cc2)cc1
Lab note: check whether P or Q has the lower measured IC50. Choose, then provide that item's label. Q
(Q: 0.1 µM, P: 0.24 µM)
